For each of the molecules below, state its % inhibition Apol 40'.
- subject-of-test: P. falciparum apicoplast DNA polymerase (Pf-apPOL) (Plasmodium falciparum, UniProt Q8ILY1)
- Sequence (Q8ILY1 entry or part of it): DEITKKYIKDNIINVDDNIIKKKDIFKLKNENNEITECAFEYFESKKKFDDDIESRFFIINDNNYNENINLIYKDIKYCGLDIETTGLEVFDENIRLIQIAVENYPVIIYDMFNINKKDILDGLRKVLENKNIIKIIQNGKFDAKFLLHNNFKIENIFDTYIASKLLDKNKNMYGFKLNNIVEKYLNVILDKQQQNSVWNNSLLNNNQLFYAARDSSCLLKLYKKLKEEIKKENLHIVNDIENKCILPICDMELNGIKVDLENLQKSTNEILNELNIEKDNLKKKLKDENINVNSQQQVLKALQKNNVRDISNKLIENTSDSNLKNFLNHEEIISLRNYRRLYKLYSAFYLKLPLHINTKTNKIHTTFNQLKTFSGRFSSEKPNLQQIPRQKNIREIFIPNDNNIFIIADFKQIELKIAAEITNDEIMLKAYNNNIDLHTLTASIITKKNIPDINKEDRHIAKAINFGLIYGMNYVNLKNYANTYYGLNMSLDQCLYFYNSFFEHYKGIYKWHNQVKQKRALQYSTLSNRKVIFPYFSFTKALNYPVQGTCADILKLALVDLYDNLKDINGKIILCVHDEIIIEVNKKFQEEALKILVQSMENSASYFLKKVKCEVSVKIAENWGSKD
- measurement-notes: Fluorescence-based high-throughput DNA polymerase assay (molecular beacon), primary screen and dose-response;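 also: compound concentration given in µM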
- Assay type: biochemical
- settings: DRC-2, 40', concentration 40
Give bare numbers, in %.

List reported % inhibition Apol 40' for each of these molecules:
1. COc1ccc(C(=O)Nc2cccc(-c3nc4ncccc4o3)c2)cc1[N+](=O)[O-]
2. O=C(Nc1nnc(-c2ccno2)o1)c1ccc2c(c1)OCO2
3. Cc1nn(CC(=O)NCCSCc2ccco2)c(C)c1Br
4. Cn1nc(C(=O)N2CCc3c(nc4cc(-c5ccccc5)[nH]n4c3=O)C2)c2ccccc21
5. CS(=O)(=O)c1cccc(C(=O)Nc2nnc(-c3ccno3)o2)c1

Key:
[61, 39, 45, 56, 28]

Numbers sourced from paper PMC9090415.
